All values here come from the MegaScale stability set (Tsuboyama et al. 2023).

Below is a list of entries, each paired with its recorded folding stability dG value.
B1: EHEE_rd2_1257 (parent)
chain: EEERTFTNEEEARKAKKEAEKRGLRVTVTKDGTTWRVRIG

Variants of: B1
assay_method_text: folding stability dG (cDNA display proteolysis); higher = more stable
condition_info: PBS, room temperature
Reply with the number, then its unit.

EEERTFTNEEEARKAKKEAEKRGLRVTVTKDYTTWRVRIG [G32Y]: 0.01 kcal/mol
REERTFTNEEEARKAKKEAEKRGLRVTVTKDGTTWRVRIG [E1R]: 1.83 kcal/mol
EEERTFTNEEEARKNKKEAEKRGLRVTVTKDGTTWRVRIG [A15N]: 0.555 kcal/mol
EEERTFTNEEEARKAKKEAEKRVLRVTVTKDGTTWRVRIG [G23V]: 0.034 kcal/mol
EEERTFTNEYEARKAKKEAEKRGLRVTVTKDGTTWRVRIG [E10Y]: 2.21 kcal/mol
EEERTFTNEEEARKAKKEAEKRGLRVTVTKDGTHWRVRIG [T34H]: 2.12 kcal/mol
EEERTFTNSEEARKAKKEAEKRGLRVTVTKDGTTWRVRIG [E9S]: 1.35 kcal/mol
EEEREFTNEEEARKAKKEAEKRGLRVTVTKDGTTWRVRIG [T5E]: 1.65 kcal/mol

Prompt: Name the recorded folding stability dG of the variant listed here: EEERTFTNEEEARKAKKEAEKRGLRVTVTKEGTTWRVRIG [D31E]
Completion: 2.15 kcal/mol

Prompt: Name the recorded folding stability dG of the variant listed here: EEERTFTNEEEARKAKKEAEKAGLRVTVTKDGTTWRVRIG [R22A]
Completion: 1.91 kcal/mol

Prompt: Name the recorded folding stability dG of the variant listed here: EEERTFTNEEEARKAKKEAEKRGLRVTVTKDGTTWRVSIG [R38S]
Completion: 1.93 kcal/mol

Prompt: Name the recorded folding stability dG of the variant listed here: EEERTFTNEEEARKAKKEAEKRGLRVTVCKDGTTWRVRIG [T29C]
Completion: 1.83 kcal/mol

Prompt: Name the recorded folding stability dG of the variant listed here: ETERTFTNEEEARKAKKEAEKRGLRVTVTKDGTTWRVRIG [E2T]
Completion: 2.18 kcal/mol

Prompt: Name the recorded folding stability dG of the variant listed here: EEERTFTNEEEARKAKKEAQKRGLRVTVTKDGTTWRVRIG [E20Q]
Completion: 1.67 kcal/mol
